target-or-system: Apoptotic protease-activating factor 1 (Homo sapiens)
Sequence (O14727 whole entry): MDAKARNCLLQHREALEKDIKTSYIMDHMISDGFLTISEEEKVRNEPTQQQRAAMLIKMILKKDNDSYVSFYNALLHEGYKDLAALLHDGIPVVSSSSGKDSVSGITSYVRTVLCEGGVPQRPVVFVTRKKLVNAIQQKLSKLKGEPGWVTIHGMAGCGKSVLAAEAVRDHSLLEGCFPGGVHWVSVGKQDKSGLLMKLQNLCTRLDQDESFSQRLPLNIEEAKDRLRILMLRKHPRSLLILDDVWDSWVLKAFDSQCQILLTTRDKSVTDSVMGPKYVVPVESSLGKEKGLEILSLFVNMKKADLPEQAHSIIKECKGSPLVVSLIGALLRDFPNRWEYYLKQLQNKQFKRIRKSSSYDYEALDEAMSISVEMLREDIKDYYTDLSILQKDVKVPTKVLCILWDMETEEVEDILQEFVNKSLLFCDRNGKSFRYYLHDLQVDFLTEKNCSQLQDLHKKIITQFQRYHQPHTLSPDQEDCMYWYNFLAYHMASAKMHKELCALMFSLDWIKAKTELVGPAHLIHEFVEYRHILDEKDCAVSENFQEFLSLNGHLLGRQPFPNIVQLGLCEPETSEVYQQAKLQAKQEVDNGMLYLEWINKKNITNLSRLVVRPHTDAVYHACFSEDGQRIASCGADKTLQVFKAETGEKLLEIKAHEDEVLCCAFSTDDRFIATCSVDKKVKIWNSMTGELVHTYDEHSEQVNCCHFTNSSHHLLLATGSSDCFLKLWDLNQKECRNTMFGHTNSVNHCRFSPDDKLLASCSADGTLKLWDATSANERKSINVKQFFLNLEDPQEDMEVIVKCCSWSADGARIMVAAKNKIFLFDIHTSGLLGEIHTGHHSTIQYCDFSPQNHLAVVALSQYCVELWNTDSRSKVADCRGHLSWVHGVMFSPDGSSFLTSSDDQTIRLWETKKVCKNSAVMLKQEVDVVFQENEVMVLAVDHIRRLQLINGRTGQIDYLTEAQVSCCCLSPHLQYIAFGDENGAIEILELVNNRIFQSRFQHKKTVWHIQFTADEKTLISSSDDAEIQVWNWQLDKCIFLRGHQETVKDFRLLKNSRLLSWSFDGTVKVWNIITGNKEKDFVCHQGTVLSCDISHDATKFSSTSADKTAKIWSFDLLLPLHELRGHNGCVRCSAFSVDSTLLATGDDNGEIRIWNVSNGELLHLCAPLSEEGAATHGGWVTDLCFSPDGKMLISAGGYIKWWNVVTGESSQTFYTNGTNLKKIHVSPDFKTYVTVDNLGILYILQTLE
Type: functional
Calls of active or inactive are those of the source.
Answer with one of the outcomes given here: active, inactive

Recorded test call requested for COc1ccc2[nH]c(=O)c(CNc3ccccc3OC)cc2c1
active

Recorded test call requested for COc1ccc(/C=N/NC(=O)CCn2cnc(-c3ccccc3)c2-c2ccccc2)cc1
active

Recorded test call requested for O=C(c1ccc([N+](=O)[O-])o1)N(Cc1nnc(-c2ccccc2Cl)o1)C1CC1
inactive

Recorded test call requested for COc1ccc(CNC[C@@H](CCCCN(C)Cc2ccc(OC)cc2)N2C[C@H](c3ccccc3)N(CCc3ccc(Cl)c(Cl)c3)C(=O)C2=O)cc1
active
